Hey, just so you know, these numbers are from patent US4591604A.

# subject-of-test: activated human C1 (Homo sapiens, UniProt P09871)
# method-description: Test Code 026 (C1 inhibitor)
# Format: biochemical
# condition-set: serial twofold dilution assay; higher well number indicates higher activity
property: C1 026 Wells

• O=C(Nc1ccc2cc(S(=O)(=O)O)cc(O)c2c1)Nc1ccc2cc(S(=O)(=O)O)cc(O)c2c1 = +2 Wells
• O=C(Nc1ccc(S(=O)(=O)[O-])c2ccc(S(=O)(=O)[O-])cc12)Nc1ccc(S(=O)(=O)[O-])c2ccc(S(=O)(=O)[O-])cc12.[Na+].[Na+].[Na+].[Na+] = +3 Wells
• O=C(Nc1ccc(S(=O)(=O)[O-])c2ccccc12)Nc1ccc(S(=O)(=O)[O-])c2ccccc12.[Na+].[Na+] = +2 Wells

Prompt: Provide value of C1 026 Wells for this record tested with activated human C1 (Homo sapiens, UniProt P09871): "O=C(Nc1cc2ccc(S(=O)(=O)[O-])cc2cc1S(=O)(=O)[O-])Nc1cc2ccc(S(=O)(=O)[O-])cc2cc1S(=O)(=O)[O-].[Na+].[Na+].[Na+].[Na+]"
Completion: +3 Wells

Prompt: Ok, now "O=S(=O)([O-])c1cc(NC(=S)Nc2cc(S(=O)(=O)[O-])cc3cc(S(=O)(=O)[O-])cc(S(=O)(=O)[O-])c23)c2c(S(=O)(=O)[O-])cc(S(=O)(=O)[O-])cc2c1.[Na+].[Na+].[Na+].[Na+].[Na+].[Na+]"
Completion: +5 Wells

Prompt: Ok, now "O=C(Nc1cc2c(O)cc(S(=O)(=O)[O-])cc2cc1S(=O)(=O)[O-])Nc1cc2c(O)cc(S(=O)(=O)[O-])cc2cc1S(=O)(=O)[O-].[Na+].[Na+].[Na+].[Na+]"
Completion: +4 Wells
